# Test system: MRSA
# assay-protocol: Rescue concentration of substituted phenyl azaindole derivatives
# Format: cell-based, Staphylococcus aureus
# experimental-parameters: Amoxicillin fixed at 2 μg/mL
Please respond with reported Rescue concentration, MRSA Amoxicillin (2 μg/mL) for every item in the list.

Some solved cases for reference:
molecule: O=[N+]([O-])c1cccc(C(c2c[nH]c3cnccc23)c2c[nH]c3cnccc23)c1
system-under-test: MRSA
reported-result: <256 µg/mL

molecule: O=[N+]([O-])c1cccc(C(O)c2c[nH]c3ncc(Cl)cc23)c1 (stereo not drawn)
system-under-test: MRSA
reported-result: <256 µg/mL

## Task Param item = Nc1cccc(C(O)c2c[nH]c3cnccc23)c1 (stereo not drawn) ; retrieve measured Rescue concentration, MRSA Amoxicillin (2 μg/mL).
## Result 8 µg/mL

Every entry's value here was drawn from patent US20230382926A1.
